Test: Apparent oral volume of distribution in Sprague-Dawley rat at 5 mg/kg, po measured upto 24 hrs
Format: ADME, organism-based
Conditions: in vivo
VALUE_KIND: Vd/F (L/kg)
Expressed in L/kg, but write only the number.

Reported Vd/F for COc1ccc(C[C@H]2COc3ccccc3N2Cc2ccc(OCCN3CCCC3)cc2)cc1 : what is it?
140

----------
Test: Tmax in Sprague-Dawley rat at 5 mg/kg, po measured upto 24 hrs
Assay type: ADME, organism-based
Settings: in vivo
VALUE_KIND: Tmax (min)
The reply should be a number in min, with the unit left off.

Tell me the measured Tmax of COc1ccc(C[C@H]2COc3ccccc3N2Cc2ccc(OCCN3CCCC3)cc2)cc1 , please.
15

----------
Assay: AUC(0 to infinity) in Sprague-Dawley rat at 0.5 mg/kg, iv measured upto 24 hrs
Format: ADME, organism-based
Set-up: time < 24 hrs, dose 0.5 mg/kg, route iv
Conditions: in vivo
VALUE_KIND: AUC(0-inf) (ng·h/mL)
Numbers only; they are read as ng·h/mL.

// lookup AUC(0-inf) for COc1ccc(C[C@H]2COc3ccccc3N2Cc2ccc(OCCN3CCCC3)cc2)cc1
124

----------
Experiment: Tmax in Sprague-Dawley rat at 0.5 mg/kg, iv measured upto 24 hrs
Assay type: ADME, organism-based
Settings: in vivo
VALUE_KIND: Tmax (min)
Give your result in min as a bare value.

Form field: reported Tmax of COc1ccc(C[C@H]2COc3ccccc3N2Cc2ccc(OCCN3CCCC3)cc2)cc1
49.8

----------
Test: Cmax in Sprague-Dawley rat at 5 mg/kg, po measured upto 24 hrs
Type: ADME, organism-based
Parameters: time < 24 hrs, dose 5 mg/kg, route po
Conditions: in vivo
VALUE_KIND: Cmax (ng/mL)
Give a bare numeral; the unit ng/mL is implied.

Given the compound COc1ccc(C[C@H]2COc3ccccc3N2Cc2ccc(OCCN3CCCC3)cc2)cc1 , what is its reported Cmax?
43.2

----------
Assay: Apparent oral clearance in Sprague-Dawley rat at 5 mg/kg, po measured upto 24 hrs
Assay type: ADME, organism-based
Conditions: in vivo
VALUE_KIND: CL/F (mL/min/kg)
Return type: number; implicit unit mL/min/kg.

Item under review: COc1ccc(C[C@H]2COc3ccccc3N2Cc2ccc(OCCN3CCCC3)cc2)cc1 . Reported CL/F?
176

----------
Test system: MDA-MB-231
Test: Antiproliferative activity against human MDA-MB-231 cells assessed as inhibition of cell growth incubated for 72 hrs by MTT assay
Format: functional, cell-based
Details: MDA-MB-231, 72 h
VALUE_KIND: pIC50
Expect pIC50 as a plain number equal to -log10 of the molar concentration.

Field request: pIC50 | item: COc1ccc(C[C@H]2COc3ccccc3N2Cc2ccc(OCCN3CCCC3)cc2)cc1
6.15

----------
Test: Mean residence time in Sprague-Dawley rat at 0.5 mg/kg, iv measured upto 24 hrs
Type: ADME, organism-based
Conditions: in vivo
VALUE_KIND: MRT (h)
Please respond with the number in h and leave the unit unwritten.

Would you kindly share the measured MRT for COc1ccc(C[C@H]2COc3ccccc3N2Cc2ccc(OCCN3CCCC3)cc2)cc1 ?
4.66

----------
System: LA7
Assay: Antiproliferative activity against rat LA7 cells assessed as inhibition of cell growth incubated for 72 hrs by MTT assay
Format: functional, cell-based
Conditions: LA7, 72 h
VALUE_KIND: IC50 (µM)
Give just the number in µM; leave the unit off.

Item COc1ccc(C[C@H]2COc3ccccc3N2Cc2ccc(OCCN3CCCC3)cc2)cc1 with LA7 - IC50?
0.19

----------
Experiment: AUC(0 to infinity) in Sprague-Dawley rat at 5 mg/kg, po measured upto 24 hrs
Assay type: ADME, organism-based
Parameters: dose 5 mg/kg, time < 24 hrs, route po
Details: in vivo
VALUE_KIND: AUC(0-inf) (ng·h/mL)
Note: unit ng·h/mL is implicit; provide only the numeric part.

So what does the record say about AUC(0-inf) for COc1ccc(C[C@H]2COc3ccccc3N2Cc2ccc(OCCN3CCCC3)cc2)cc1 ?
506

----------
Tested on: MCF-10A
Assay: Antiproliferative activity against human MCF-10A cells assessed as inhibition of cell growth incubated for 72 hrs by MTT assay
Format: cell-based
VALUE_KIND: IC50

State the recorded IC50 for this entry: COc1ccc(C[C@H]2COc3ccccc3N2Cc2ccc(OCCN3CCCC3)cc2)cc1
> 18 µM

----------
Assay: Mean residence time in Sprague-Dawley rat at 5 mg/kg, po measured upto 24 hrs
Assay type: ADME, organism-based
Conditions: in vivo
VALUE_KIND: MRT (h)
Express the result in h but write the number alone.

Please look up its MRT: COc1ccc(C[C@H]2COc3ccccc3N2Cc2ccc(OCCN3CCCC3)cc2)cc1
16.1

----------
Experiment: Half life in Sprague-Dawley rat at 0.5 mg/kg, iv measured upto 24 hrs
Format: ADME, organism-based
Conditions: in vivo
VALUE_KIND: half-life (h)
Report only the number, with the unit h understood.

Reported half-life, molecule COc1ccc(C[C@H]2COc3ccccc3N2Cc2ccc(OCCN3CCCC3)cc2)cc1 : ____
3.42
